- experimental-details: S. cerevisiae growth modulation with rapamycin, primary screen, strain BY4716, OD600, 96 h (AID 1091); note: test concentration not given here
- test-settings: higher = more signal, called active from +8 up or from −8 down
quantity-measured: z-score
No unit in the answer, please; the number alone is enough.

Solved entries (count: 5):
compound: CCOC(=O)[C@H](Cc1ccccc1)NC(=O)CCC1CC(OC(=O)NCc2cccc3ccccc23)CC2(CCCC(COC(=O)NCc3ccc4c(c3)OCO4)O2)O1 (some centres not stated)
z-score: 0.743
--
compound: O=C1C=C[C@@H](O)[C@@H]2[C@@H]3C(=O)N(c4cccc(Oc5ccccc5)c4)C(=O)[C@@H]3CC[C@@H]12
z-score: -0.0875
--
compound: COC(=O)CC=C[C@@H](C)[C@@H](C=NOC[C@@H](O)COCc1ccco1)OC
z-score: 0.225
--
compound: CCc1cc2c(nc1CC)CCN(CCC(C)=NOCC[C@@H]1C=C[C@H](OC(C)=O)[C@@H](COC(C)=O)O1)C2
z-score: 0.521
--
compound: CCOC(=O)CCN1C(=O)[C@H]2[C@H]3[C@H](O)[C@H](O)CC(=NOCC(C)C)[C@@H]3CC[C@H]2C1=O
z-score: -0.629

State the recorded z-score for this entry: `O=C1[C@H]2[C@H]3[C@H](O)[C@H](O)CC(=NO[C@@H]4O[C@H](CO)[C@@H](O)[C@H](O)[C@H]4O)[C@@H]3CC[C@H]2C(=O)N1C1CCCCC1`
-0.291

May I ask what z-score has been recorded for `CC(CCN1CCCc2nc(C)c(C)cc21)=NO[C@H](C)c1cn([C@H](CO)Cc2ccccc2)nn1` ?
0.399

Where do the numbers come from? From PubChem BioAssay.
